Examples of compounds with documented inhibition at 1 µM follow.
- Target or system: recombinant human ALK enzyme (ALK WT) (Homo sapiens, UniProt Q9UM73)
- Construct: purchased Carna Biosciences 08-518
- Sequence (Q9UM73 1058-1620 limits assumed): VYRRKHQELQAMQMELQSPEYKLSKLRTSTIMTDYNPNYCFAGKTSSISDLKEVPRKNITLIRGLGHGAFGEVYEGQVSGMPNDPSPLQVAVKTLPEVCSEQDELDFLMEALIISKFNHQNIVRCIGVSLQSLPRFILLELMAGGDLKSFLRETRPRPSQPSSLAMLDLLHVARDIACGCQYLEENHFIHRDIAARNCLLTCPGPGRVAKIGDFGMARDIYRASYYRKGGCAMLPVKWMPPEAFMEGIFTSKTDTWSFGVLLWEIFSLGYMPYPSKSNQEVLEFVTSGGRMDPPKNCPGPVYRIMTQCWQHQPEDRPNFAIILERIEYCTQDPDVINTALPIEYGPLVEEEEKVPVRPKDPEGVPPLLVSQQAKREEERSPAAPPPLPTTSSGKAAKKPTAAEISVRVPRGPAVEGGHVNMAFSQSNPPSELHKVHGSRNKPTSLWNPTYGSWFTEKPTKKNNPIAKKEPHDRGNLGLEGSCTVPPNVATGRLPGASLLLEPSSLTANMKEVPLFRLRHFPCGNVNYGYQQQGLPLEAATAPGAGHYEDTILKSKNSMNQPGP
- Experiment summary: ALK WT cell free enzymatic assay (TR-FRET)
- Assay type: biochemical
- Experimental context: compound at 1 μM; 30 min pre-incubation; 1 μM ATP
Please give a number only; it is taken to be in %.

Recorded results for 4 compounds are shown here.
COc1cc(-c2cnc3[nH]cc(-c4cnn(Cc5cccc(F)c5)c4)c3c2)cnc1N1CCNCC1 | 100
C[C@H](O)CN1CCN(c2ccc(-c3cnc4[nH]cc(-c5cnn(Cc6cccc(F)c6)c5)c4c3)c(F)c2)CC1 | 95
COc1cccc(Cn2cc(-c3c[nH]c4ncc(-c5ccc(C6CCNCC6)cc5)cc34)cn2)c1 | 99
c1cncc(Cn2cc(-c3c[nH]c4ncc(-c5ccc(N6CCNCC6)cc5)cc34)cn2)c1 | 99

Param readout = inhibition at 1 µM; param system = recombinant human ALK enzyme (ALK WT) (Homo sapiens, UniProt Q9UM73); param query = CN1CCN(c2cccc(-c3cnc4[nH]cc(-c5cnn(Cc6cccc(F)c6)c5)c4c3)c2)CC1 ; response: value
99

Then this compound: Cc1nn(Cc2cccc(F)c2)c(C)c1-c1c[nH]c2ncc(-c3cccc(NC4CCNCC4)c3)cc12
100

---

- Target or system: recombinant human ALK enzyme (ALK WT) (Homo sapiens, UniProt Q9UM73)
- Construct: purchased Carna Biosciences 08-518
- Experiment summary: ALK WT cell free enzymatic assay (TR-FRET)
- Type: biochemical
- Experimental context: compound at 100 nM; 30 min pre-incubation; 1 μM ATP
Label rule, in plain words: inhibition at 0.1 µM of 90% and up is met, under 90% is not met.

Examples with answers:
CC(C)N1CCN(c2cccc(-c3cnc4[nH]cc(-c5cnn(Cc6cccc(F)c6)c5)c4c3)c2)CC1 | met
Cc1c(-c2c[nH]c3ncc(-c4ccc(N5CCN(C[C@H](C)O)CC5)nc4)cc23)cnn1Cc1cccc(F)c1 | not met

Continue with the next compound.
Determine whether measured inhibition at 0.1 µM meets or exceeds 90% for C[C@H](O)CN1CCN(c2ccc(-c3cnc4[nH]cc(-c5cnn(Cc6cccc(F)c6)c5)c4c3)cc2)CC1
met

---

- Target or system: recombinant human ALK enzyme (ALK WT) (Homo sapiens)
- Construct: purchased Carna Biosciences 08-518
- Experiment summary: ALK WT cell free enzymatic assay (TR-FRET)
- Format: biochemical
- Experimental context: compound at 1 μM; 30 min pre-incubation; 1 μM ATP
Where a name gives a salt, the structure may show the parent alone.
Measure: inhibition at 1 µM

Cc1nn(Cc2cccc(Cl)c2)c(C)c1-c1c[nH]c2ncc(-c3ccc(N4CCNCC4)cc3)cc12 [Example 47, hydrochloride] | 100%
CS(=O)(=O)Nc1cccc(-c2cnc3[nH]cc(-c4cnn(Cc5cccc(C(F)(F)F)c5)c4)c3c2)c1 | 33%
C[C@@H](O)CN1CCN(c2ccc(-c3cnc4[nH]cc(-c5cnn(Cc6cccc(F)c6)c5)c4c3)cc2)CC1 | 99%

Which inhibition at 1 µM reading was recorded for the molecule Fc1cccc(Cn2cc(-c3c[nH]c4ncc(-c5ccc(NC6CCNCC6)cc5)cc34)cn2)c1 ?
100%

Next molecule: C[C@H](O)CN1CCCN(c2ccc(-c3cnc4[nH]cc(-c5cnn(Cc6cccc(F)c6)c5)c4c3)cc2)CC1
99%

Please do the same for C[C@H](O)CN1CCN(c2ccc(-c3cnc4[nH]cc(-c5cnn(CCc6ccccc6)c5)c4c3)cn2)CC1 as well.
98%

Quick one: C[C@H](O)CN1CCN(c2ccc(-c3cnc4[nH]cc(-c5cnn(Cc6cccc(F)c6)c5)c4c3)cn2)CC1
100%

Note, next up: Cc1nn(Cc2cccc(F)c2)c(C)c1-c1c[nH]c2ncc(-c3ccc(N4CCN(CCN(C)C)CC4)cc3)cc12
100%

Try Cc1nn(Cc2cccc(C#N)c2)c(C)c1-c1c[nH]c2ncc(-c3ccc(N4CCNCC4)cc3)cc12 [Example 48, hydrochloride] next.
83%

One more molecule: Fc1cc(F)cc(Cn2cc(-c3c[nH]c4ncc(-c5ccc(N6CCNCC6)nc5)cc34)cn2)c1
100%

Same lookup for C[C@H](O)CN1CCN(c2ccc(-c3cnc4[nH]cc(-c5cnn(Cc6cccc(F)c6)c5)c4c3)cc2)CC1 , please.
100%

Repeat with CS(=O)(=O)Nc1cccc(-c2cnc3[nH]cc(-c4cnn(Cc5cccc(N)c5)c4)c3c2)c1
97%

Also check Cc1nn(Cc2cccc(F)c2)c(C)c1-c1c[nH]c2ncc(-c3cccc(OC4CCNCC4)c3)cc12
100%

Then what about the molecule c1ccc(CCn2cc(-c3c[nH]c4ncc(-c5cccc(CC6CCNCC6)c5)cc34)cn2)cc1 ?
95%

---

- Target or system: recombinant human ALK enzyme (ALK WT) (Homo sapiens, UniProt Q9UM73)
- Construct: purchased Carna Biosciences 08-518
- Experiment summary: ALK WT cell free enzymatic assay (TR-FRET)
- Assay type: biochemical
- Experimental context: 10 point dose response; 1 μM ATP
Counter-ions that a name gives are not always drawn.
Measure: IC50

Examples with answers:
CS(=O)(=O)Nc1cc(-c2cnc3[nH]cc(-c4cnn(Cc5cc(F)cc(F)c5)c4)c3c2)ccc1F [Example 79] | < 50 nM
COc1ccc(-c2cnc3[nH]cc(-c4cnn(Cc5cccnc5)c4)c3c2)cc1NS(C)(=O)=O [Example 72] | 50 to 250 nM
Cc1c(-c2c[nH]c3ncc(-c4ccc(C5CCNCC5)c(F)c4)cc23)cnn1Cc1cccc(F)c1 [Example 165] | < 50 nM
c1ccc(Cn2cc(-c3c[nH]c4ncc(-c5ccc(C6CCNCC6)cc5)cc34)cn2)nc1 [Example 93] | < 50 nM
c1ccc(CCn2cc(-c3c[nH]c4ncc(-c5cccc(CC6CCNCC6)c5)cc34)cn2)cc1 [Example 98] | 50 to 250 nM

Could you tell me which IC50 is on file for COc1cc(N2CCNCC2)ccc1-c1cnc2[nH]cc(-c3c(C)nn(Cc4cccc(F)c4)c3C)c2c1 [Example 61, hydrochloride] ?
< 50 nM

Also, CC(C)CN1CCN(c2ccc(-c3cnc4[nH]cc(-c5cnn(Cc6cccc(F)c6)c5)c4c3)cn2)CC1 [Example 152] please.
< 50 nM

---

- Target or system: recombinant human ALK enzyme (ALK WT) (Homo sapiens)
- Construct: purchased Carna Biosciences 08-518
- Experiment summary: ALK WT cell free enzymatic assay (TR-FRET)
- Format: biochemical
- Experimental context: compound at 1 μM; 30 min pre-incubation; 1 μM ATP
Some molecules, each annotated with its measured inhibition at 1 µM.
Provide only the numeric value, understood in %.

CN1CCN(c2ccc(-c3cnc4[nH]cc(-c5cnn(CCc6ccccc6)c5)c4c3)cc2)CC1 | 100
C[C@@H](O)CN1CCN(c2ncc(-c3cnc4[nH]cc(-c5cnn(Cc6cccc(F)c6)c5)c4c3)cc2F)CC1 | 100
CN1CCN(c2ccc(-c3cnc4[nH]cc(-c5cnn(Cc6cccc(F)c6)c5)c4c3)cn2)CC1 | 100
COc1cc(-c2cnc3[nH]cc(-c4c(C)nn(Cc5cc(F)cc(F)c5)c4C)c3c2)cnc1N | 100

Now, please, on to the next molecule.
Bench note: what inhibition at 1 µM did C[C@H](O)CN1CCN(c2ccc(-c3cnc4[nH]cc(-c5cnn(Cc6cccc(F)c6)c5)c4c3)nc2)CC1 show?
97

---

- Target or system: recombinant human ALK enzyme (ALK WT) (Homo sapiens)
- Construct: purchased Carna Biosciences 08-518
- Experiment summary: ALK WT cell free enzymatic assay (TR-FRET)
- Format: biochemical
- Experimental context: compound at 100 nM; 30 min pre-incubation; 1 μM ATP
Where a name gives a salt, the structure may show the parent alone.
Returns one of yes (1) or no (0); yes (1) when inhibition at 0.1 µM is >= 90%.

Look over these answered cases.
CS(=O)(=O)Nc1cccc(-c2cnc3[nH]cc(-c4cnn(Cc5cccc([N+](=O)[O-])c5)c4)c3c2)c1 [Example 7] | no (0)
c1ccc(CCn2cc(-c3c[nH]c4ncc(-c5ccc(N6CCNCC6)nc5)cc34)cn2)cc1 [Example 140] | no (0)
CS(=O)(=O)Nc1cc(-c2cnc3[nH]cc(-c4cnn(Cc5cccc(F)c5)c4)c3c2)ccc1N1CCN(CC(N)=O)CC1 [Example 110] | yes (1)
Cc1c(-c2c[nH]c3ncc(-c4ccc(N5CCNCC5)cc4)cc23)cnn1Cc1cccc(F)c1 [Example 44, hydrochloride] | yes (1)
Fc1cccc(Cn2cc(-c3c[nH]c4ncc(-c5ccc(NC6CCNCC6)cc5)cc34)cn2)c1 [Example 100] | yes (1)

Would you kindly look at the next entry?
Identify whether the reported inhibition at 0.1 µM of the following compound is 90% or greater: Cc1c(-c2c[nH]c3ncc(-c4ccc(N5CCN(C[C@H](C)O)CC5)cc4)cc23)cnn1Cc1cccc(F)c1 [Example 129]
yes (1)

Data origin: patent US9353107B2
